- Tested on: Plasmodium falciparum
Measure name: IC50 (nM)
One number for each entry, in nM.

Reference set, count: 3
[[record]]
compound = "CCCOC(=O)CC[C@@H](C)[C@H]1CC[C@H]2[C@@H]3[C@H](OC(C)=O)C[C@@H]4CC5(CC[C@]4(C)[C@H]3C[C@H](OC(C)=O)[C@]12C)OOC1(CCC(C(=O)OCCC)CC1)OO5 (stereo in doubt; 5a)"
tested_on = "Plasmodium falciparum"
measure_name = "IC50"
unit_of_measure = "nM"
recorded_result = 6.7

[[record]]
compound = "CC(=O)O[C@H]1C[C@H]2[C@@H]([C@H](OC(C)=O)C[C@@H]3CC4(CC[C@@]32C)OOC2(CCC(C)CC2)OO4)[C@@H]2CC[C@H]([C@H](C)CCC(=O)O)[C@@]12C (stereo in doubt; 16)"
tested_on = "Plasmodium falciparum"
measure_name = "IC50"
unit_of_measure = "nM"
recorded_result = 1.53

[[record]]
compound = "CCCNC(=O)CC[C@@H](C)[C@H]1CC[C@H]2[C@@H]3[C@H](OC(C)=O)C[C@@H]4CC5(CC[C@]4(C)[C@H]3C[C@H](OC(C)=O)[C@]12C)OOC1(CCC(C(=O)NCCC)CC1)OO5 (stereo in doubt; 9)"
tested_on = "Plasmodium falciparum"
measure_name = "IC50"
unit_of_measure = "nM"
recorded_result = 10.5


Task: # IC50 lookup, item CC(=O)O[C@H]1C[C@H]2[C@@H]([C@H](OC(C)=O)C[C@@H]3CC4(CC[C@@]32C)OOC2(CCC(C(N)=O)CC2)OO4)[C@@H]2CC[C@H]([C@H](C)CCC(N)=O)[C@@]12C (stereo in doubt; 7)
Output: 11

* * *

- System: Plasmodium falciparum
Measure name: pIC50
Numbers only, as −log10 of the molar value.

[[record]]
compound = "CC(=O)O[C@H]1C[C@H]2[C@@H]([C@H](OC(C)=O)C[C@@H]3CC4(CC[C@@]32C)OOC2(CCC(C(N)=O)CC2)OO4)[C@@H]2CC[C@H]([C@H](C)CCC(N)=O)[C@@]12C (stereo in doubt; 7)"
recorded_result = 7.93

[[record]]
compound = "CC(=O)O[C@H]1C[C@H]2[C@@H]([C@H](OC(C)=O)C[C@@H]3CC4(CC[C@@]32C)OOC2(CCC(C(=O)O)CC2)OO4)[C@@H]2CC[C@H]([C@H](C)CCC(=O)O)[C@@]12C (stereo in doubt; 6a)"
recorded_result = 6.87

[[record]]
compound = "CC(=O)O[C@H]1C[C@H]2[C@@H]([C@H](OC(C)=O)C[C@@H]3CC4(CC[C@@]32C)OOC2(CCC(C(N)=O)CC2)OO4)[C@@H]2CC[C@H]([C@H](C)CCC(N)=O)[C@@]12C (stereo in doubt; 8)"
recorded_result = 6.78

[[record]]
compound = "CC(=O)O[C@H]1C[C@H]2[C@@H]([C@H](OC(C)=O)C[C@@H]3CC4(CC[C@@]32C)OOC2(CCC(C(=O)Nc3ccccc3)CC2)OO4)[C@@H]2CC[C@H]([C@H](C)CCC(=O)Nc3ccccc3)[C@@]12C (stereo in doubt; 13)"
recorded_result = 8.09

[[record]]
compound = "CCCOC(=O)CC[C@@H](C)[C@H]1CC[C@H]2[C@@H]3[C@H](OC(C)=O)C[C@@H]4CC5(CC[C@]4(C)[C@H]3C[C@H](OC(C)=O)[C@]12C)OOC1(CCC(C(=O)OCCC)CC1)OO5 (stereo in doubt; 5a)"
recorded_result = 8.06


Task: pIC50 of CC(=O)O[C@H]1C[C@H]2[C@@H]([C@H](OC(C)=O)C[C@@H]3CC4(CC[C@@]32C)OOC2(CCC(C(=O)Nc3ccccc3)CC2)OO4)[C@@H]2CC[C@H]([C@H](C)CCC(=O)Nc3ccccc3)[C@@]12C (stereo in doubt; 14) on Plasmodium falciparum?
Output: 7.37

* * *

- Assay: Half life in human liver microsomes
- Assay type: ADME, Microsome
Please respond with reported half-life for every item in the list.

The cases that follow already have their half-life on record.
[[record]]
compound = "CC(=O)O[C@H]1C[C@H]2[C@@H]([C@H](OC(C)=O)C[C@@H]3CC4(CC[C@@]32C)OOC2(CCC(C(N)=O)CC2)OO4)[C@@H]2CC[C@H]([C@H](C)CCC(N)=O)[C@@]12C (stereo in doubt; 7)"
measure_name = "half-life"
recorded_result = "0.35 h"

[[record]]
compound = "CC(=O)O[C@H]1C[C@H]2[C@@H]([C@H](OC(C)=O)C[C@@H]3CC4(CC[C@@]32C)OOC2(CCC(C(=O)NCCN(C)C)CC2)OO4)[C@@H]2CC[C@H]([C@H](C)CCC(=O)NCCN(C)C)[C@@]12C (stereo in doubt; 11)"
measure_name = "half-life"
recorded_result = "> 2 h"


Task: Which measured half-life value corresponds to CC(=O)O[C@H]1C[C@H]2[C@@H]([C@H](OC(C)=O)C[C@@H]3CC4(CC[C@@]32C)OOC2(CCC(C(=O)Nc3ccccc3)CC2)OO4)[C@@H]2CC[C@H]([C@H](C)CCC(=O)Nc3ccccc3)[C@@]12C (stereo in doubt; 13) ?
Output: > 2 h

* * *

Assignment: determine reported half-life for the given compounds.
- Assay: Half life in mouse liver microsomes
- Assay type: ADME, Microsome

Some compounds with known half-life results, for comparison:
[[record]]
compound = "CC(=O)O[C@H]1C[C@H]2[C@@H]([C@H](OC(C)=O)C[C@@H]3CC4(CC[C@@]32C)OOC2(CCC(C(N)=O)CC2)OO4)[C@@H]2CC[C@H]([C@H](C)CCC(N)=O)[C@@]12C (stereo in doubt; 7)"
measure_name = "half-life"
recorded_result = "0.633 h"

[[record]]
compound = "CC(=O)O[C@H]1C[C@H]2[C@@H]([C@H](OC(C)=O)C[C@@H]3CC4(CC[C@@]32C)OOC2(CCC(C(=O)Nc3ccccc3)CC2)OO4)[C@@H]2CC[C@H]([C@H](C)CCC(=O)Nc3ccccc3)[C@@]12C (stereo in doubt; 13)"
measure_name = "half-life"
recorded_result = "> 2 h"


Consider now this further compound.
Task: Consider the compound shown here: CC(=O)O[C@H]1C[C@H]2[C@@H]([C@H](OC(C)=O)C[C@@H]3CC4(CC[C@@]32C)OOC2(CCC(C(=O)NCCN(C)C)CC2)OO4)[C@@H]2CC[C@H]([C@H](C)CCC(=O)NCCN(C)C)[C@@]12C (stereo in doubt; 11) What is its recorded half-life?
Output: > 2 h

* * *

- Tested on: Plasmodium falciparum
- Assay: microbe, parasite or virus in culture
- Run parameters: D6
- Description: Antimalarial activity against Plasmodium falciparum D6
Exercise: state measured pIC50 for each of the molecules provided.
One number for each entry, as −log10 of the molar value.

Look over these answered cases.
[[record]]
molecule = "C[C@@H]1CC[C@H]2[C@@H](C)C(=O)O[C@@H]3O[C@@]4(C)CC[C@@H]1[C@]32OO4 [ARTEMISININ]"
recorded_result = 8.05

[[record]]
molecule = "O[C@@H](c1cc(C(F)(F)F)nc2c(C(F)(F)F)cccc12)[C@H]1CCCCN1 [MEFLOQUINE]"
recorded_result = 7.98

[[record]]
molecule = "CC(=O)O[C@H]1C[C@H]2[C@@H]([C@H](OC(C)=O)C[C@@H]3CC4(CC[C@@]32C)OOC2(CCC(C(=O)NCCN(C)C)CC2)OO4)[C@@H]2CC[C@H]([C@H](C)CCC(=O)NCCN(C)C)[C@@]12C (stereo in doubt; 12)"
recorded_result = 6.89


Pending molecule:
Task: Which pIC50 is reported for this molecule? `CCCC(=O)CC[C@@H](C)[C@H]1CC[C@H]2[C@@H]3[C@H](OC(C)=O)C[C@@H]4CC5(CC[C@]4(C)[C@H]3C[C@H](OC(C)=O)[C@]12C)OOC1(CCCCC1)OO5`
Output: 7.83
